Hello, the source for this data is PubChem BioAssay AID743279, in case you need it.

PROCEDURE_DETAILS: qHTS for Inhibitors of Inflammasome Signaling: IL-1-beta AlphaLISA Primary Screen
MEASUREMENT_CONTEXT: THP-1 LPS/ATP IL-1B secretion, 16 h; at 57.5 µM
The campaign covered roughly 360,000 compounds. About 17,000 (4.7%) were called active. Roughly 5% stayed inconclusive and do not appear here. Rule as the data show it: active = activity change below about -50%; inconclusive = mostly about -30% to -49%; inactive = weaker than that. The sample holds actives, similar compounds and a random draw of the others, so the mix is not that of the screen.
Return exactly one item of active, inactive

Worked examples follow.
INSERT INTO assay_data (molecule, class_name) VALUES
  ('Cc1c(NC(=O)CSc2nnc(-c3cccnc3)n2N)c(=O)n(-c2ccccc2)n1C', 'inactive'),
  ('Cc1c(NC(=O)CSc2nnnn2-c2ccc(C(=O)O)cc2)c(=O)n(-c2ccccc2)n1C', 'inactive');

Let us examine a further case.
Task item: Write down the call the test reported for this molecule. Item: `CC(C)(C)c1ccc(C(=O)NNC(=O)Cc2ccccc2)cc1`
Reply: inactive
